The reader will find reported inhibition values listed item by item below.
molecular target: Solute carrier family 2, facilitated glucose transporter member 1 (Homo sapiens) (UniProt P11166); experiment: ST_JUDE_LEISH: Cytotoxicity at 2uM final concentration against transgenic Leishmania Mexicana promastigotes LmGLUT1 that are glucose transport deficient and complemented with the human glucose transporter GLUT1. Activity is measured by DNA content using SYBR green in vitro; format: functional
Sequence (P11166 whole entry): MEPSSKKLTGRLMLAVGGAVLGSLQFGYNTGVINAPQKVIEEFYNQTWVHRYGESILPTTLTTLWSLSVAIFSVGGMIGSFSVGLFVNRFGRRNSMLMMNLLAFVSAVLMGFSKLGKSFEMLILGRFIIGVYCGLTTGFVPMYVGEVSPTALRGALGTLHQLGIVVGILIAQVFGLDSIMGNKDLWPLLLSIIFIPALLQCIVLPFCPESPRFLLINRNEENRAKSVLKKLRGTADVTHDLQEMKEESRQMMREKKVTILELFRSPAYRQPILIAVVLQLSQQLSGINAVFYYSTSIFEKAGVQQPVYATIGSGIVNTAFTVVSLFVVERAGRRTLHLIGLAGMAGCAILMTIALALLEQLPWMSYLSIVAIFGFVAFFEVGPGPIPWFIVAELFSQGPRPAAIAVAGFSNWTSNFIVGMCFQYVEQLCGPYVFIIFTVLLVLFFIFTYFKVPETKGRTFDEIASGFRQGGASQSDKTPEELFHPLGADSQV
Field: numeric (%). Do not append units.

[ask] Reported inhibition for CCn1c(-c2nc(-c3ccnc(N4CCN(C)CC4)c3)cnc2N)nc2cc(S(C)(=O)=O)ccc21 : what is it?
[reply] 36.5

====

biological target: Hexose transporter 1 (Plasmodium falciparum); assay: ST_JUDE_LEISH: Cytotoxicity at 2uM final concentration against transgenic Leishmania Mexicana promastigotes LmPfHT that are glucose transport deficient and complemented with the Plasmodium falciparum hexose transporter. Activity is measured by DNA content using SYBR green in vitro; format: functional
ASSAY METRIC: inhibition
Note: state the figure and append the unit.

Below, each entry is followed by its recorded inhibition result.
| MOLECULE | REPORTED RESULT |
| --- | --- |
| CCC(CC)C(CC(=O)NC(C)(C)CCc1ccccc1OC)Nc1ccc(C#N)c2ccccc12 (stereo not given) | 3.53% |
| OC(c1nnc(S)n1-c1ccccc1)C(O)c1nnc(S)n1-c1ccccc1 (stereo not given) | 8.57% |

[ask] Requested field: inhibition. Item: Cc1nc2nc(N)nc(N)c2c(C)c1Cc1ccc(O)cc1
[reply] -2.78%

[ask] Please do the same for O=C(C=Cc1ccc(Cl)c(Cl)c1)NCCCCCN1CCCC(CCCNC(=O)c2ccc3c(c2)OCO3)C1 (stereo not given) as well.
[reply] 0.94%

[ask] Try this molecule too: Cc1ccc(Nc2nnc(SCC(=O)Nc3ccc(CN4CCCC4)cc3)s2)cc1
[reply] -0.59%

====

biological target: Glucose transporter (Leishmania mexicana); assay: ST_JUDE_LEISH: Cytotoxicity at 2uM final concentration against transgenic Leishmania Mexicana promastigotes LmGT2 that are glucose transport deficient and complemented with the L. Mexicana glucose transporter 2. Activity is measured by DNA content using SYBR green in vitro; format: functional
ASSAY METRIC: inhibition (%)
Your answer should be a plain number; it is taken to be in %.

As a guide, the following entries are already answered.
| MOLECULE | UNITS OF MEASURE | inhibition |
| --- | --- | --- |
| Cc1ccc(C)c(NC(=O)NCCNc2ccnc(Nc3ccc(F)cc3)n2)c1 | % | 6.47 |
| CC(C)(C)c1ccc(OCCCON2C(=N)N=C(N)NC2(C)C)c(C(C)(C)C)c1 | % | 1.14 |
| Cc1oc(-c2ccc(Cl)cc2)cc1C(=O)NCCC1CCN(CCCCCNC(=O)/C=C/c2ccc(Cl)c(Cl)c2)CC1 | % | -2.41 |
| COc1ccc(CC(=O)Nc2ccc(Nc3nc(C)cc(N(C)C)n3)cc2)cc1 | % | 1.53 |
| Cn1cc(-c2ccnc3[nH]c(-c4cccc(CNC5CCC(O)CC5)c4)cc23)cn1 (stereo not given) | % | 3.37 |

[ask] Which inhibition is reported with Glucose transporter (Leishmania mexicana) for this entry: COc1ccc2nccc([C@@H](O)CN3CCC(NCc4cc5cccc(OC)c5o4)CC3)c2c1 ?
[reply] -0.75

[ask] Could you do the same for O=C(CCCCCNC(=O)c1ccc(O)c(-c2ccc(Cl)c(Cl)c2)c1)NC1CCCc2ccccc21 (stereo not given) , please?
[reply] 2.15

[ask] For CCc1c(C(=O)NC2CCC(N3CCC(c4ccccc4C)CC3)CC2)[nH]c2ccc(OC)cc12 (stereo not given) then?
[reply] -0.08

[ask] Here is the next molecule: COc1ccc(C2C(C(=O)Nc3cc(Cl)c(OC)cc3OC)c3ccccc3C(=O)N2C)cc1 (stereo not given)
[reply] -1.07

[ask] Likewise for CCC(C)NC(=O)CN1CN(c2ccccc2)C2(CCN(C(=O)c3ccc4ccccc4c3)CC2)C1=O (stereo not given) ?
[reply] -0.96

[ask] What about CN(C)CCn1c(=N)n(CC(O)c2ccc(Cl)c(Cl)c2)c2ccccc21 (stereo not given) ?
[reply] 5.49

[ask] Subsequent entry: CC(=O)Nc1nc(C(=O)Nc2cccc(-c3cccc(-c4nc5cc(F)ccc5[nH]4)c3)c2)cs1
[reply] 2.66

[ask] Further, for CN(C)Cc1c(O)ccc2[nH]c(-c3ccc(F)cc3F)nc12 ?
[reply] -1.59

[ask] Input Cc1cc(NC(=O)CCCN2CCN(c3cccc(Cl)c3Cl)CC2)ccc1N1CCN(C(C)C)CC1
[reply] 4.97

[ask] Repeat with N#CCOc1c(C2CCN(CCCCNC(=O)c3ccc(-c4ccc(C(F)(F)F)cc4)cc3)CC2)ccc2c1CCCC2
[reply] 3.28

Origin of values: ChEMBL document CHEMBL3433997
